The following compounds are listed with their measured pIC50 values.
System: SK-MEL-2
assay_details: In vitro antitumor activity against melanoma SK-MEL-2 tumor cell lines
Assay type: functional, cell-based, Homo sapiens
study_conditions: sk-mel-2
For clarity, pIC50 is expressed as the negative log10 of concentration in mol/L.

Recorded pIC50 (compound `CC1=C[C@H]2O[C@@H]3C[C@H]4OC(=O)/C=C\C=C\[C@H]([C@@H](C)O)OCC[C@@H](C)[C@H](O)C(=O)OC[C@@]2(CC1)[C@]4(C)[C@]31CO1` ): 8.52

Recorded pIC50 (compound `CC1=C[C@H]2O[C@@H]3[C@H](O)[C@H]4OC(=O)/C=C\C=C\[C@H]([C@H](C)O)OCC/C(C)=C/C(=O)OC[C@@]2(CC1)[C@]4(C)[C@]31CO1` ): 7.62

Recorded pIC50 (compound `CC1=C[C@H]2O[C@@H]3[C@H](O)[C@H]4OC(=O)/C=C\C=C\[C@@H]5O[C@H](C/C(C)=C/C(=O)OC[C@@]2(CC1)[C@]4(C)[C@]31CO1)O[C@H]5C` ): 6.59

---

Tested on: HCT-15
assay_details: In vitro antitumor activity against colon HCT-15 tumor cell lines
Assay type: functional, cell-based, Homo sapiens
study_conditions: hct-15
pIC50: −log10 of the molar value.
The following molecules are listed with their measured pIC50 values.

Solved entries:
[
  {
    "molecular_string": "CC1=C[C@H]2O[C@@H]3C[C@H]4OC(=O)/C=C\\C=C\\[C@H]([C@@H](C)O)OCC[C@@H](C)[C@H](O)C(=O)OC[C@@]2(CC1)[C@]4(C)[C@]31CO1",
    "result": "< 5.00"
  },
  {
    "molecular_string": "CC1=C[C@H]2OC3C[C@@H](OC(=O)/C=C\\C=C\\[C@H](O)[C@H](C)O)[C@](C)([C@@]2(COC(=O)/C=C(\\C)CCO)CC1)[C@]31CO1",
    "result": "< 5.00"
  }
]

We next turn to a different molecule, shown below.
Recorded pIC50 (molecule `CC1=C[C@H]2O[C@@H]3[C@H](O)[C@H]4OC(=O)/C=C\C=C\[C@@H]5O[C@H](C/C(C)=C/C(=O)OC[C@@]2(CC1)[C@]4(C)[C@]31CO1)O[C@H]5C` ): 6.32

---

The following molecules are listed with their measured IC50 values.
Test system: 786-0
assay_details: In vitro antitumor activity against renal 786-0 tumor cell lines
Assay type: functional, cell-based, Homo sapiens

Solved entries:
[
  {
    "molecule": "CC1=C[C@H]2O[C@@H]3C[C@H]4OC(=O)/C=C\\C=C\\[C@H]([C@@H](C)O)OCC[C@@H](C)[C@H](O)C(=O)OC[C@@]2(CC1)[C@]4(C)[C@]31CO1",
    "result": "0.04 µM"
  },
  {
    "molecule": "CC1=C[C@H]2OC3C[C@@H](OC(=O)/C=C\\C=C\\[C@H](O)[C@@H](C)O)[C@](C)([C@@]2(COC(=O)/C=C(\\C)CCO)CC1)[C@]31CO1",
    "result": "> 10 µM"
  },
  {
    "molecule": "CC1=C[C@H]2O[C@@H]3[C@H](O)[C@H]4OC(=O)/C=C\\C=C\\C(=O)OCC/C(C)=C/C(=O)OC[C@@]2(CC1)[C@]4(C)[C@]31CO1",
    "result": "> 10 µM"
  }
]

We next turn to a different molecule, shown below.
Recorded IC50 (molecule CC(=O)OC(C)[C@@H](O)/C=C/C=C\C(=O)O[C@@H]1CC2O[C@@H]3C=C(C)CC[C@]3(COC(=O)/C=C(\C)CCO)[C@]1(C)[C@]21CO1 (some centres undefined) ): > 10 µM

---

Test system: SK-MEL-2
assay_details: In vitro antitumor activity against melanoma SK-MEL-2 tumor cell lines
Type: functional, cell-based, Homo sapiens
study_conditions: sk-mel-2
property: IC50 (µM)
Give just the number in µM; leave the unit off.

Solved entries:
[
  {
    "molecule": "CC1=C[C@H]2OC3C[C@@H](OC(=O)/C=C\\C=C\\[C@H](O)[C@@H](C)O)[C@](C)([C@@]2(COC(=O)/C=C(\\C)CCO)CC1)[C@]31CO1 [TRICHOVERRIN B]",
    "assayed_system": "SK-MEL-2",
    "property": "IC50",
    "unit_info": "µM",
    "result_number": 8.91
  },
  {
    "molecule": "CC1=C[C@H]2O[C@@H]3[C@H](O)[C@H]4OC(=O)/C=C\\C=C\\C(=O)OCC/C(C)=C/C(=O)OC[C@@]2(CC1)[C@]4(C)[C@]31CO1 [VERRUCARRIN M]",
    "assayed_system": "SK-MEL-2",
    "property": "IC50",
    "unit_info": "µM",
    "result_number": 0.037
  },
  {
    "molecule": "CC1=C[C@H]2OC3C[C@@H](OC(=O)/C=C\\C=C\\[C@H](O)[C@H](C)O)[C@](C)([C@@]2(COC(=O)/C=C(\\C)CCO)CC1)[C@]31CO1 [TRICHOVERRIN A]",
    "assayed_system": "SK-MEL-2",
    "property": "IC50",
    "unit_info": "µM",
    "result_number": 7.54
  }
]

Recorded IC50 (molecule CC1=C[C@H]2O[C@@H]3C[C@H]4OC(=O)/C=C\C=C\C(=O)OCC[C@@H](C)[C@H](O)C(=O)OC[C@@]2(CC1)[C@]4(C)[C@]31CO1 [VERRUCARIN A] ): 0.008

---

Organism: Homo sapiens
assay_details: Concentration giving 500 zone units against H116 colon tumor cell lines
Type: functional
property: Concentration (µg/mL)
Give just the number in µg/mL; leave the unit off.

Solved entries:
[
  {
    "molecule": "CC1=C[C@H]2O[C@@H]3[C@H](O)[C@H]4OC(=O)/C=C\\C=C\\[C@@H]5O[C@H](C/C(C)=C/C(=O)OC[C@@]2(CC1)[C@]4(C)[C@]31CO1)O[C@H]5C",
    "result_number": 41
  },
  {
    "molecule": "CC1=C[C@H]2O[C@@H]3[C@H](O)[C@H]4OC(=O)/C=C\\C=C\\[C@H]([C@H](C)O)OCC/C(C)=C/C(=O)OC[C@@]2(CC1)[C@]4(C)[C@]31CO1",
    "result_number": 1.3
  },
  {
    "molecule": "CC1=C[C@H]2OC3C[C@@H](OC(=O)/C=C\\C=C\\[C@H](O)[C@@H](C)O)[C@](C)([C@@]2(COC(=O)/C=C(\\C)CCO)CC1)[C@]31CO1",
    "result_number": 175
  },
  {
    "molecule": "CC1=C[C@H]2OC3C[C@@H](OC(=O)/C=C\\C=C\\[C@H](O)[C@H](C)O)[C@](C)([C@@]2(COC(=O)/C=C(\\C)CCO)CC1)[C@]31CO1",
    "result_number": 163
  },
  {
    "molecule": "CC1=C[C@H]2O[C@@H]3C[C@H]4OC(=O)/C=C\\C=C\\C(=O)OCC[C@@H](C)[C@H](O)C(=O)OC[C@@]2(CC1)[C@]4(C)[C@]31CO1",
    "result_number": 0.78
  }
]

Recorded Concentration (molecule `CC(=O)OC[C@]12CCC(C)=C[C@H]1O[C@@H]1[C@H](O)[C@@H](OC(C)=O)[C@@]2(C)[C@]12CO2` ): 0.24

Recorded Concentration (molecule CC(=O)OC(C)[C@@H](O)/C=C/C=C\C(=O)O[C@@H]1CC2O[C@@H]3C=C(C)CC[C@]3(COC(=O)/C=C(\C)CCO)[C@]1(C)[C@]21CO1 (stereo partly drawn) ): 31

Recorded Concentration (molecule `CC1=C[C@H]2O[C@@H]3[C@H](O)[C@H]4OC(=O)/C=C\C=C\C(=O)OCC/C(C)=C/C(=O)OC[C@@]2(CC1)[C@]4(C)[C@]31CO1` ): 30

Recorded Concentration (molecule `C/C1=C\C(=O)OC[C@]23CC[C@](C)(O)[C@H]4C[C@@]5(O)[C@H](O[C@H]42)[C@H](O)[C@@H](OC(=O)/C=C\C=C\[C@@H]2O[C@H](C1)O[C@H]2C)[C@]35C` ): 550

Recorded Concentration (molecule `CC1=C[C@H]2O[C@@H]3C[C@H]4OC(=O)/C=C\C=C\[C@H]([C@H](C)O)OCC[C@@H](C)[C@H](O)C(=O)OC[C@@]2(CC1)[C@]4(C)[C@]31CO1` ): 0.9

Recorded Concentration (molecule `CC1=C[C@H]2O[C@@H]3C[C@H]4OC(=O)/C=C\C=C\[C@H]([C@@H](C)O)OCC[C@@H](C)[C@H](O)C(=O)OC[C@@]2(CC1)[C@]4(C)[C@]31CO1` ): 0.78

Recorded Concentration (molecule `CC1=C[C@H]2O[C@@H]3[C@H](O)[C@H]4OC(=O)/C=C\C=C\[C@H]([C@@H](C)O)OCC/C(C)=C/C(=O)OC[C@@]2(CC1)[C@]4(C)[C@]31CO1` ): 0.14

Recorded Concentration (molecule `CC1=C[C@H]2O[C@@H]3C[C@H]4OC(=O)/C=C\C=C\[C@H]([C@H](C)O)OCC/C(C)=C/C(=O)OC[C@@]2(CC1)[C@]4(C)[C@]31CO1` ): 8.6
